Please provide measured inhibition for the entries that follow.
Molecular target: Adenosine receptor A1 (Homo sapiens)
Sequence (whole entry): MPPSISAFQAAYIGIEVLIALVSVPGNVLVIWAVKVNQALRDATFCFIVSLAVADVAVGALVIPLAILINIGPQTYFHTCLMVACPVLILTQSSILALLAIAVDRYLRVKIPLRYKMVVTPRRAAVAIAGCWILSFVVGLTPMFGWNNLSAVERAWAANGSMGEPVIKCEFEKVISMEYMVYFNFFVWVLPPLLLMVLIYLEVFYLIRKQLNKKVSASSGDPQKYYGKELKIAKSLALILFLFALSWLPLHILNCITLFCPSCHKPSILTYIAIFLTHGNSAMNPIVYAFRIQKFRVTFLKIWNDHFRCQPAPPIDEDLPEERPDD
Experiment: Displacement of [3H]DPCPX from human adenosine A1 receptor expressed in CHO cells at 0.1 uM by liquid scintillation counting
Format: cell-based
The answer is to be given in %; state only the numeric part.

Record CCC(=O)Nc1cc(-c2ccc(OC)cc2)nc(-c2ccc(OC)cc2)n1 , field inhibition: 8

Value of inhibition reported for the compound CC(=O)Nc1cc(-c2ccc(C)cc2)nc(-c2ccc(C)cc2)n1 is 2

Entry COc1ccccc1-c1cc(NC(C)=O)nc(-c2ccccc2OC)n1 , inhibition reported as 1

Sample CCC(=O)Nc1nc(-c2ccc(C(F)(F)F)cc2)cc(-c2ccc(C(F)(F)F)cc2)n1 ; inhibition observed: 2

For CCC(=O)Nc1cc(-c2ccc(Cl)cc2)nc(-c2ccc(Cl)cc2)n1 the compound record lists inhibition as 16

The compound listed as CC(=O)Nc1nc(-c2ccc3c(c2)OCO3)cc(-c2ccc3c(c2)OCO3)n1 shows inhibition equal to 1

Short answer for COc1ccc(-c2cc(-c3ccc(OC)cc3OC)nc(NC(C)=O)n2)c(OC)c1 : inhibition was 1

So, COc1ccc(-c2cc(NC(=O)C3CCCCC3)nc(-c3ccc(OC)cc3OC)n2)c(OC)c1 ? Its inhibition was 1

Documented inhibition of CCCC(=O)Nc1nc(/C=C/c2ccccc2)cc(/C=C/c2ccccc2)n1 : 1

// CC(=O)Nc1cc(-c2ccsc2)nc(-c2ccsc2)n1 : inhibition value = 13

Reported inhibition of CCC(=O)Nc1nc(-c2ccc(OC)cc2)cc(-c2ccc(OC)cc2)n1 : 2

The recorded inhibition for entry COc1ccc(-c2cc(NC(=O)C3CCCCC3)nc(-c3ccc(OC)cc3)n2)cc1 equals 5

Measured inhibition of CSc1ccc(-c2cc(NC(C)=O)nc(-c3ccc(SC)cc3)n2)cc1 : 1

The measured inhibition associated with CC(=O)Nc1nc(-c2ccc(Cl)cc2)cc(-c2ccc(Cl)cc2)n1 reads 2

The reported inhibition of the compound CC(=O)Nc1cc(-c2ccc(Cl)cc2)nc(-c2ccc(Cl)cc2)n1 was 1

Given item CCCC(=O)Nc1cc(-c2ccc(C)cc2)nc(-c2ccc(C)cc2)n1 , the value recorded as its inhibition is 16

GET /value?item= COc1ccc(-c2cc(NC(=O)C(C)C)nc(-c3ccc(OC)cc3)n2)cc1 &field=inhibition returns 5

The compound listed as CCC(=O)Nc1cc(-c2ccc(C(C)=O)cc2)nc(-c2ccc(C(C)=O)cc2)n1 has a reported inhibition of 1

# inhibition of CCC(=O)Nc1nc(-c2ccc(F)cc2)cc(-c2ccc(F)cc2)n1 = 14

CCC(=O)Nc1nc(/C=C/c2ccccc2)cc(/C=C/c2ccccc2)n1 yielded inhibition of 1

inhibition reading for CCC(=O)Nc1cc(-c2ccc(SC)cc2)nc(-c2ccc(SC)cc2)n1 : 1
